Origin of values: ChEMBL document CHEMBL2021813

Catalogue of compounds with associated Ki
target: Delta-type opioid receptor (Homo sapiens, UniProt P41143); test: Displacement of [3H]DADLE from human recombinant delta opioid receptor expressed in CHO cells after 2 hrs by liquid scintillation counting; type: cell-based
Sequence (P41143 whole entry): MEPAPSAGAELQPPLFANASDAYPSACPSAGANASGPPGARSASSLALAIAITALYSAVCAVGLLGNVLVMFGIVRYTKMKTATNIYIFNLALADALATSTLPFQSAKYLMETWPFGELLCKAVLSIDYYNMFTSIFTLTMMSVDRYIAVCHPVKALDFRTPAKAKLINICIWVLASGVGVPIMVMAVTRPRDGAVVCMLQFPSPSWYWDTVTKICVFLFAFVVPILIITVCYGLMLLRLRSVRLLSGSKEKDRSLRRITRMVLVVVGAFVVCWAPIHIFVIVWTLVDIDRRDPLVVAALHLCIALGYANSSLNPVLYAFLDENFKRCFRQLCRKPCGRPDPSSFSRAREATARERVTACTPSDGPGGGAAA

Fill in: Ki of COC(=O)[C@@H]1C[C@H](OC(C)=O)C(=O)[C@H]2[C@@]1(C)CC[C@H]1C(=O)O[C@H](C(=O)c3ccccc3OC)C[C@]21C is ___
> 10 µM

Fill in: Ki of COC(=O)[C@@H]1C[C@H](OC(C)=O)C(=O)[C@H]2[C@@]1(C)CC[C@H]1C(=O)O[C@H](C(=O)c3ccccc3)C[C@]21C is ___
> 10 µM

Dear colleague, I am looking for the recorded Ki of the following compound: COC(=O)[C@@H]1C[C@H](OC(C)=O)C(=O)[C@H]2[C@@]1(C)CC[C@H]1C(=O)O[C@H](C(=O)c3cccc(OC(F)(F)F)c3)C[C@]21C
> 1 µM

---

molecular target: Mu-type opioid receptor (Homo sapiens, UniProt P35372); experiment: Displacement of [3H]DAMGO from human recombinant mu opioid receptor expressed in CHO cells after 2 hrs by liquid scintillation counting; type: cell-based
Sequence (P35372 whole entry): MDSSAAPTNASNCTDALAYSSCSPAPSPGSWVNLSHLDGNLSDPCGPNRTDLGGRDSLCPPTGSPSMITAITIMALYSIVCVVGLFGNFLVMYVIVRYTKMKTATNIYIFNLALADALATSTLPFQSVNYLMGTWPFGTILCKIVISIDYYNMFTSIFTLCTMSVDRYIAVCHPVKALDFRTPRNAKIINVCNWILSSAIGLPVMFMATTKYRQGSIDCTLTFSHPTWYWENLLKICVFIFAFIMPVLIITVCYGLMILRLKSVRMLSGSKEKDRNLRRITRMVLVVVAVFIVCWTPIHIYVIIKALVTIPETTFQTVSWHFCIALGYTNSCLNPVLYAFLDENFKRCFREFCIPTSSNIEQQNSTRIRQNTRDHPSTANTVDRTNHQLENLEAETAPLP
Listed compounds paired with reported Ki
Number only, in µM; omit the unit.

Sample records with Ki:
[[record]]
smiles_str = "COC(=O)[C@@H]1C[C@H](OC(C)=O)C(=O)[C@H]2[C@@]1(C)CC[C@H]1C(=O)O[C@H](C(=O)c3cccc(OC(F)(F)F)c3)C[C@]21C"
readout_value = 4.8

[[record]]
smiles_str = "COC(=O)[C@@H]1C[C@H](OC(C)=O)C(=O)[C@H]2[C@@]1(C)CC[C@H]1C(=O)O[C@H](C(=O)c3ccccc3O)C[C@]21C"
readout_value = 3.6

[[record]]
smiles_str = "COC(=O)[C@@H]1C[C@H](OC(C)=O)C(=O)[C@H]2[C@@]1(C)CC[C@H]1C(=O)O[C@H](C(=O)c3ccsc3)C[C@]21C"
readout_value = 2.53


Fill blank: measured Ki of the compound COC(=O)[C@@H]1C[C@H](OC(C)=O)C(=O)[C@H]2[C@@]1(C)CC[C@H]1C(=O)O[C@H](C(=O)c3ccccc3)C[C@]21C is ____.
1.49

# get_value(readout='Ki', item= COC(=O)[C@@H]1C[C@H](OC(C)=O)C(=O)[C@H]2[C@@]1(C)CC[C@H]1C(=O)O[C@H](C(=O)c3cccc(C(F)(F)F)c3)C[C@]21C )
3.4

I am curious: what Ki value has been reported for COC(=O)[C@@H]1C[C@H](OC(C)=O)C(=O)[C@H]2[C@@]1(C)CC[C@H]1C(=O)O[C@H](C(=O)c3cccc(OC)c3)C[C@]21C ?
3.09

---

Each item that follows carries a reported Emax.
target: UniProt P41145; experiment: Agonist activity at human recombinant kappa opioid receptor expressed in CHO cells assessed as [35S]GTP-gamma-S binding after 3 hrs by liquid scintillation counting relative to (-)U50488; type: functional, cell-based

Please give the measured Emax for this compound: COC(=O)[C@@H]1C[C@H](OC(C)=O)C(=O)[C@H]2[C@@]1(C)CC[C@H]1C(=O)O[C@H](C(=O)c3ccco3)C[C@]21C
92%

Query: Emax; subject: COC(=O)[C@@H]1C[C@H](OC(C)=O)C(=O)[C@H]2[C@@]1(C)CC[C@H]1C(=O)O[C@H](/C=C\c3ccoc3)C[C@]21C
105%

Please give the measured Emax for this compound: COC(=O)[C@@H]1C[C@H](OC(C)=O)C(=O)[C@H]2[C@@]1(C)CC[C@H]1C(=O)O[C@H](C(=O)c3cccs3)C[C@]21C
95%

---

biological target: Kappa-type opioid receptor (Homo sapiens); test: Agonist activity at human recombinant kappa opioid receptor expressed in CHO cells assessed as calcium mobilization after 1 hrs by fluorescence analysis; assay type: functional, cell-based
Sequence (P41145 whole entry): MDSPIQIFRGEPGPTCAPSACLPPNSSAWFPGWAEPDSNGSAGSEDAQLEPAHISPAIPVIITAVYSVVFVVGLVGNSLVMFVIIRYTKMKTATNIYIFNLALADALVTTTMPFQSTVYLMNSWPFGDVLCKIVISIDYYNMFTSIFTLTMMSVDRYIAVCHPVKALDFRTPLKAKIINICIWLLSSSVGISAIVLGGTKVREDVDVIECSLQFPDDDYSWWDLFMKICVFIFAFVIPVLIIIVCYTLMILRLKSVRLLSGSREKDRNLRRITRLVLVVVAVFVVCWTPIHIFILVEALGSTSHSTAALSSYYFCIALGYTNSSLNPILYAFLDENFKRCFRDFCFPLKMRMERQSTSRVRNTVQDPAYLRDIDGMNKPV
measurement label: pEC50
# pEC50: negative log10 of molar concentration; output just the value

[[record]]
smiles_str = "COC(=O)[C@@H]1C[C@H](OC(C)=O)C(=O)[C@H]2[C@@]1(C)CC[C@H]1C(=O)O[C@H](C(=O)c3cccc(C(N)=O)c3)C[C@]21C"
readout_value = 7.12


Then there is this molecule:
Please report the recorded pEC50 for COC(=O)[C@@H]1C[C@H](OC(C)=O)C(=O)[C@H]2[C@@]1(C)CC[C@H]1C(=O)O[C@H](c3ccco3)C[C@]21C .
7.91

---

target: Mu-type opioid receptor (Homo sapiens); assay: Displacement of [3H]DAMGO from human recombinant mu opioid receptor expressed in CHO cells at 1 uM after 2 hrs by liquid scintillation counting; format: cell-based
This listing pairs compounds with measured Activity.
Numbers only here, please. The scale is %.

[[record]]
smiles_str = "COC(=O)[C@@H]1C[C@H](OC(C)=O)C(=O)[C@H]2[C@@]1(C)CC[C@H]1C(=O)O[C@H](C(=O)c3cccc(C#N)c3)C[C@]21C"
units_label = "%"
readout_value = 61

[[record]]
smiles_str = "COC(=O)[C@@H]1C[C@H](OC(C)=O)C(=O)[C@H]2[C@@]1(C)CC[C@H]1C(=O)O[C@H](c3ccco3)C[C@]21C"
units_label = "%"
readout_value = 81


I have this compound here, COC(=O)[C@@H]1C[C@H](OC(C)=O)C(=O)[C@H]2[C@@]1(C)CC[C@H]1C(=O)O[C@H](C(=O)c3cccc(C(N)=O)c3)C[C@]21C , and I need its recorded Activity.
84

# get_value(readout='Activity', item= COC(=O)[C@@H]1C[C@H](OC(C)=O)C(=O)[C@H]2[C@@]1(C)CC[C@H]1C(=O)O[C@H](C(=O)c3cccc(O)c3)C[C@]21C )
55

Any idea what Activity was measured for COC(=O)[C@@H]1C[C@H](OC(C)=O)C(=O)[C@H]2[C@@]1(C)CC[C@H]1C(=O)O[C@H](C(=O)c3csc4ccccc34)C[C@]21C ?
60

---

biological target: Delta-type opioid receptor (Homo sapiens); assay: Displacement of [3H]DADLE from human recombinant delta opioid receptor expressed in CHO cells after 2 hrs by liquid scintillation counting
measurement label: Ki

Answered examples (3):
[[record]]
smiles_str = "C/C=C\\C(=O)[C@@H]1C[C@]2(C)[C@H]3C(=O)[C@@H](OC(C)=O)C[C@@H](C(=O)OC)[C@]3(C)CC[C@H]2C(=O)O1"
target_or_test_system = "Delta-type opioid receptor (Homo sapiens)"
readout_value = "> 5 µM"

[[record]]
smiles_str = "COC(=O)[C@@H]1C[C@H](OC(C)=O)C(=O)[C@H]2[C@@]1(C)CC[C@H]1C(=O)O[C@H](C(=O)c3cccc(OC)c3)C[C@]21C"
target_or_test_system = "Delta-type opioid receptor (Homo sapiens)"
readout_value = "> 10 µM"

[[record]]
smiles_str = "COC(=O)[C@@H]1C[C@H](OC(C)=O)C(=O)[C@H]2[C@@]1(C)CC[C@H]1C(=O)O[C@H](C(=O)c3cccs3)C[C@]21C"
target_or_test_system = "Delta-type opioid receptor (Homo sapiens)"
readout_value = "> 10 µM"


Consider the molecule shown here: COC(=O)[C@@H]1C[C@H](OC(C)=O)C(=O)[C@H]2[C@@]1(C)CC[C@H]1C(=O)O[C@H](C(=O)c3ccc(OC)cc3)C[C@]21C What is its recorded Ki?
> 10 µM

Requested read-out: Ki. Entry: COC(=O)[C@@H]1C[C@H](OC(C)=O)C(=O)[C@H]2[C@@]1(C)CC[C@H]1C(=O)O[C@H](C(=O)c3cccc(C(N)=O)c3)C[C@]21C
> 10 µM

Quick one: Ki for COC(=O)[C@@H]1C[C@H](OC(C)=O)C(=O)[C@H]2[C@@]1(C)CC[C@H]1C(=O)O[C@H](C(=O)c3ccccc3O)C[C@]21C ?
> 10 µM

Requested field: Ki. Item: COC(=O)[C@@H]1C[C@H](OC(C)=O)C(=O)[C@H]2[C@@]1(C)CC[C@H]1C(=O)O[C@H](C(=O)c3ccoc3)C[C@]21C
> 10 µM

I'd like to know its Ki. The molecule in question is COC(=O)[C@@H]1C[C@H](OC(C)=O)C(=O)[C@H]2[C@@]1(C)CC[C@H]1C(=O)O[C@H](C(=O)c3cccc(C#N)c3)C[C@]21C
> 10 µM

For the molecule shown here, COC(=O)[C@@H]1C[C@H](OC(C)=O)C(=O)[C@H]2[C@@]1(C)CC[C@H]1C(=O)O[C@H](C(=O)c3cc4ccccc4o3)C[C@]21C , give the reported Ki.
> 10 µM

Can you look up the measured Ki of COC(=O)[C@@H]1C[C@H](OC(C)=O)C(=O)[C@H]2[C@@]1(C)CC[C@H]1C(=O)O[C@H](/C=C/c3ccoc3)C[C@]21C for me?
> 10 µM

So what does the record say about Ki for COC(=O)[C@@H]1C[C@H](OC(C)=O)C(=O)[C@H]2[C@@]1(C)CC[C@H]1C(=O)O[C@H](C(=O)c3csc4ccccc34)C[C@]21C ?
> 1 µM

Could you tell me which Ki is on file for COC(=O)[C@@H]1C[C@H](OC(C)=O)C(=O)[C@H]2[C@@]1(C)CC[C@H]1C(=O)O[C@H](C(=O)c3cccc(C(F)(F)F)c3)C[C@]21C ?
> 1 µM

Fill in: Ki of COC(=O)[C@@H]1C[C@H](OC(C)=O)C(=O)[C@H]2[C@@]1(C)CC[C@H]1C(=O)O[C@H](C(=O)c3ccsc3)C[C@]21C is ___
> 10 µM

Fill blank: measured Ki of the molecule COC(=O)[C@@H]1C[C@H](OC(C)=O)C(=O)[C@H]2[C@@]1(C)CC[C@H]1C(=O)O[C@H](C(=O)c3cc4ccccc4s3)C[C@]21C is ____.
> 10 µM

What Ki value was documented for this molecule, COC(=O)[C@@H]1C[C@H](OC(C)=O)C(=O)[C@H]2[C@@]1(C)CC[C@H]1C(=O)O[C@H](C(=O)c3ccco3)C[C@]21C ?
> 10 µM

For COC(=O)[C@@H]1C[C@H](OC(C)=O)C(=O)[C@H]2[C@@]1(C)CC[C@H]1C(=O)O[C@H](C(=O)c3ccc(O)cc3)C[C@]21C , what is its reported Ki?
> 10 µM

For the molecule shown here, COC(=O)[C@@H]1C[C@H](OC(C)=O)C(=O)[C@H]2[C@@]1(C)CC[C@H]1C(=O)O[C@H](C(=O)c3cccc(O)c3)C[C@]21C , give the reported Ki.
> 10 µM

Can you share its Ki? I mean this molecule: COC(=O)[C@@H]1C[C@H](OC(C)=O)C(=O)[C@H]2[C@@]1(C)CC[C@H]1C(=O)O[C@H](c3ccco3)C[C@]21C
> 10 µM
